- Measured On: Thromboxane-A synthase (Rattus norvegicus)
- Sequence (whole entry): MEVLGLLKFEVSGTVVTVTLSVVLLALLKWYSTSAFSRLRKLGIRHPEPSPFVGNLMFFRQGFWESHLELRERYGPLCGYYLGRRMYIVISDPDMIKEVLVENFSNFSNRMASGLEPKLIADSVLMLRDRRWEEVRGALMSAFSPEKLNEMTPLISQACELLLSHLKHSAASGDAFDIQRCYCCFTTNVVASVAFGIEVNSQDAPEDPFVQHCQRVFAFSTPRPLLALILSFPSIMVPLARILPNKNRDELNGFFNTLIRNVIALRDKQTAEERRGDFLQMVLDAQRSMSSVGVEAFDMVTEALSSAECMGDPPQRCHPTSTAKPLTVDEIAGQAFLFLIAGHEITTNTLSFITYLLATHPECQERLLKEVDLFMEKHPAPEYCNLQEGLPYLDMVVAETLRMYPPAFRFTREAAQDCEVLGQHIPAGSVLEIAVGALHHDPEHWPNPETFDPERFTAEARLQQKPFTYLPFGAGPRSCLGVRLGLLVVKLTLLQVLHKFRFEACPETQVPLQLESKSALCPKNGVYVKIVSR
- Protocol Details: Inhibitory activity for thromboxane synthetase determined by TXB2 levels in platelets from spontaneously hypertensive rats.
- Parameters: concentration or dose not given beside the values
- Test Settings: concentration not given here
Please use Satisfied whenever inhibition is not below 80%, and Not satisfied whenever it is.

{"Molecule": "O=C(NCCCn1ccnc1)c1ccc(-c2ccccc2)cc1", "Cat": "Satisfied"}
{"Molecule": "O=C(NCCCn1ccnc1)c1ccccc1Cl", "Cat": "Satisfied"}
{"Molecule": "Cc1ccc(C(=O)NCCCn2ccnc2)cc1", "Cat": "Satisfied"}
{"Molecule": "O=C(NCCCn1cncn1)c1cccc(Br)c1", "Cat": "Satisfied"}
{"Molecule": "O=C(NCCCCn1cncn1)c1ccc(Cl)cc1", "Cat": "Not satisfied"}
{"Molecule": "CC(CNC(=O)c1ccc(Cl)cc1)Cn1ccnc1 (stereo not given)", "Cat": "Satisfied"}
{"Molecule": "O=C(O)c1ccc(OCCn2ccnc2)cc1", "Cat": "Satisfied"}
{"Molecule": "O=C(NCCCn1ccnc1)c1cccc(Br)c1", "Cat": "Satisfied"}
{"Molecule": "COc1ccc(C(=O)NCCCn2cncn2)cc1", "Cat": "Not satisfied"}
